# Tested on: Vero cells
# test_conditions: 72 hours, MTT, Probit regression
Each record here notes measured Semi-cytotoxic concentration (TC50).
reported_property: Semi-cytotoxic concentration (TC50)

[[record]]
compound = "COc1ccc(C2OCC3C(c4ccc(OC5OC(C(=O)O)C(O)C(O)C5O)c(O)c4)OCC23)cc1OC (centres unmarked) [Compound II]"
observed_result = "412 µg/mL"

[[record]]
compound = "COc1cc(C2OCC3C(c4ccc(OC5OC(C(=O)O)C(O)C(O)C5O)c(OC)c4)OCC23)ccc1O (centres unmarked) [Compound I]"
observed_result = "482 µg/mL"

[[record]]
compound = "COc1cc(C2OCC3C(c4ccc5c(c4)OCO5)OCC23)ccc1OC1OC(C(=O)O)C(O)C(O)C1O (centres unmarked) [Compound III]"
observed_result = "435 µg/mL"

[[record]]
compound = "COc1cc([C@H]2OC[C@H]3[C@@H]2CO[C@H]3c2ccc(OC)c(OC)c2)ccc1O [Phillygenin]"
observed_result = "293 µg/mL"

[[record]]
compound = "CCOC(=O)C1=C[C@@H](OC(CC)CC)[C@H](NC(C)=O)[C@@H](N)C1 [Oseltamivir phosphate, reference compound]"
observed_result = "834 µg/mL"

